- Study Target: Biotinylated BTN3A1 ectodomain + avitag (Homo sapiens, UniProt O00481, biotin on the C-terminal BirA biotinylation sequence)
- Sequence (O00481 whole entry, looked up, the tested form may be a part): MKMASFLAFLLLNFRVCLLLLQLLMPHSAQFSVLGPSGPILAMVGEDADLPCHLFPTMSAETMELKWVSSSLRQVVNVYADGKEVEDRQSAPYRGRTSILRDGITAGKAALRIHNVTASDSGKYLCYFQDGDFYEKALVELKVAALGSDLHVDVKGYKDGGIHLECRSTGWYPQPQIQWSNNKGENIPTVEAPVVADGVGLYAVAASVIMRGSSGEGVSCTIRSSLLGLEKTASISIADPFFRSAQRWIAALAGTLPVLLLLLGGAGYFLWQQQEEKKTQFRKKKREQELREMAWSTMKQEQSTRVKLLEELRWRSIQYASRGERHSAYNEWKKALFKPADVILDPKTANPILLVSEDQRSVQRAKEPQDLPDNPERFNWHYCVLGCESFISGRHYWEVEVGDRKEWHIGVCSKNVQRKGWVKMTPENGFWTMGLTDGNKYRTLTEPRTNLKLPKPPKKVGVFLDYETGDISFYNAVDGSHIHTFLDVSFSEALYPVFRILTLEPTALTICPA
- Assay Procedure: BLI

- Binder: "103.2^10 mAb hinge variant (antibody, V domains shown) VH: QVQLQQSGAEVVRPGTSVKVSCKASGYAFTSYLIHWIKQRPGQGLEWIGVINPRSGDSHYNEKFKDRTTLTADQSSSTAYMQLSSLTSDDSAVYFCARSDYGAYWGQGTLVTVSA VL: DIVLTQSPVTLSVTPGDSVSLSCRASQSISNNLHWYRQKSHESPRLLIKYASQSIFGIPSRFSGSGSGTEFTLSINSVETEDFGIYFCQQSNSWPHTFGTGTKLELK"
  binding result: "binds"
- Binder: "103.2^5 mAb hinge variant (antibody, V domains shown) VH: QVQLQQSGAEVVRPGTSVKVSCKASGYAFTSYLIHWIKQRPGQGLEWIGVINPRSGDSHYNEKFKDRTTLTADQSSSTAYMQLSSLTSDDSAVYFCARSDYGAYWGQGTLVTVSA VL: DIVLTQSPVTLSVTPGDSVSLSCRASQSISNNLHWYRQKSHESPRLLIKYASQSIFGIPSRFSGSGSGTEFTLSINSVETEDFGIYFCQQSNSWPHTFGTGTKLELK"
  binding result: "binds"

The reported numbers originate from paper PMC11982570.
